These measurements were taken from patent US20200339690A1.

Measured binding (fold over iso), listed per entry.
# target-under-test: T1, human LILRA2 (human, UniProt Q8N149 24-483)
# T1 construct: Over-expressed on CHO-s cells; also called hLILRA2
# T1 sequence (Q8N149 24-483 S135L limits assumed): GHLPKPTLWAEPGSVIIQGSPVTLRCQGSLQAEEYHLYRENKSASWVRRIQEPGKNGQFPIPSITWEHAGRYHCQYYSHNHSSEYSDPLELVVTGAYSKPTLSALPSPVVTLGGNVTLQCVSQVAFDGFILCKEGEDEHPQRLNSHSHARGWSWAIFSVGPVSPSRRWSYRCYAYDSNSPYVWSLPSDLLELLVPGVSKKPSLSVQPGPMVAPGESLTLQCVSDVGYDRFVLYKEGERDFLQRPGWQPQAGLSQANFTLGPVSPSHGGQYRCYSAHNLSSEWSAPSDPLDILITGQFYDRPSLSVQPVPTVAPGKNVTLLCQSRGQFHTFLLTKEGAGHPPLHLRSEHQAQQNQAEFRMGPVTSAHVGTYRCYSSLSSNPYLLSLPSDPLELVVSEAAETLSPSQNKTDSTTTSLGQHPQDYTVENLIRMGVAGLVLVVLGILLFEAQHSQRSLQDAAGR
# test-summary: flow cytometry, LILRA2 CHOs

# binder, binding (fold over iso)
rows = [
    ("J-04 (antibody, human IgG4 S228P, kappa, V domains shown, Human IgG4 chimera of murine origin) VH: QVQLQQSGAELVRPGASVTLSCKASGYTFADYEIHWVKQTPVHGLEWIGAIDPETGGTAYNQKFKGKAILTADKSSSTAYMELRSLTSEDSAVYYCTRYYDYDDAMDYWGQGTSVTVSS VL: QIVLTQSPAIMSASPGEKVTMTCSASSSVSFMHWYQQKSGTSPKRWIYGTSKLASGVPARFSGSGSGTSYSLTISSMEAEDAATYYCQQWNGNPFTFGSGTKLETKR", 1.62),
    ("J-17 (antibody, human IgG4 S228P, kappa, V domains shown, Human IgG4 chimera of murine origin; also called J-17.h) VH: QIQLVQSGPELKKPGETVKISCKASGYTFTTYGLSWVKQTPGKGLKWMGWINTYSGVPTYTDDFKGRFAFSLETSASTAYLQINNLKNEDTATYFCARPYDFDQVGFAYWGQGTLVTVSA VL: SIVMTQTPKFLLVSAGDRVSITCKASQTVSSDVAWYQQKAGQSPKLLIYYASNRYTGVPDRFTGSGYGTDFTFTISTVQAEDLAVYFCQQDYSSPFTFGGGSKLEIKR", -1.05),
    ("J-19 (antibody, human IgG4 S228P, kappa, V domains shown, Human IgG4 chimera from a rat immunization; also called J-19.h) VH: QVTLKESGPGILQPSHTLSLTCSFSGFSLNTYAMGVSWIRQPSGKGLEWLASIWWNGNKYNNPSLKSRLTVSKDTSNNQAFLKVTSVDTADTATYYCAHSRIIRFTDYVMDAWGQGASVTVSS VL: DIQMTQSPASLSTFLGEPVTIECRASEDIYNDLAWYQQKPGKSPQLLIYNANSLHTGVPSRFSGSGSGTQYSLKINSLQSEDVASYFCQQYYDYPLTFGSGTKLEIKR", -0.51),
]
